Tested on: P388 leukemia ip, CD2F1 mice, survival T/C
Test: NCI In Vivo Anticancer Drug Screen. Data for tumor model P388 Leukemia (intraperitoneal) in CD2F1 (CDF1) mice
Details: endpoint: median survival time; dose: 50.0 mg/kg/injection; schedule: Q01DX009 (ip); vehicle: suspension in saline; higher = longer survival
Protocol: The antitumor activity of compounds was measured in mice bearing transplantable tumors. Survival or tumor size were measured and the results are expressed as the measurement made in the treated group (T) divided by the measurement made in the vehicle treated control group (C). The tumor model used in this assay is P388 Leukemia (intraperitoneal) in CD2F1 (CDF1) mice
Toxic doses and inconclusive results are not listed.
Reported T/C values for the following molecules.

Worked cases, T/C given:
{"columns": ["molecule", "result"],
 "data": [
  ["Cc1cc2nc3[nH]c4ccccc4c3nc2cc1C", "92 % of control"],
  ["O=[N+]([O-])c1ccc(SCc2ccccc2)c2nonc12", "113 % of control"],
  ["CC1(CSc2ccccc2)CC(=O)N1 (stereo not given)", "111 % of control"],
  ["CNC(=O)Sc1ccc(Cl)cc1", "102 % of control"]
]}

# ---- query molecule ----
Query: Dear colleague, I am looking for the recorded T/C of the following molecule: CC(=O)Nc1c(Cl)c(Cl)c2c(c1Cl)Cc1cc(Cl)ccc1-2
Result: 87 % of control

###

Tested on: P388 leukemia ip, CD2F1 mice, survival T/C
Test: NCI In Vivo Anticancer Drug Screen. Data for tumor model P388 Leukemia (intraperitoneal) in CD2F1 (CDF1) mice
Details: endpoint: median survival time; dose: 25.0 mg/kg/injection; schedule: Q01DX009 (ip); vehicle: suspension in saline; higher = longer survival
Toxic doses and inconclusive results are not listed.
quantity-kind: T/C

Some solved entries appear below for comparison.
{"columns": ["compound", "result"],
 "data": [
  ["Cc1cc2nc3[nH]c4ccccc4c3nc2cc1C", "94 % of control"],
  ["N#CC(NCc1ccccc1)C(O)c1ccccc1 (centres undefined)", "105 % of control"],
  ["O=[N+]([O-])c1ccc(SCc2ccccc2)c2nonc12", "106 % of control"]
]}

Please look at the following compound next.
Query: Recorded T/C of CO[C@H]1/C=C/O[C@@]2(C)Oc3c(C)c(O)c4c(O)c(c(/C=N/N5CCCN(Cc6ccccc6)CC5)c(O)c4c3C2=O)NC(=O)/C(C)=C\C=C\[C@H](C)[C@H](O)C(C)[C@@H](O)C(C)[C@H](OC(C)=O)[C@@H]1C (some centres undefined) , please.
Result: 107 % of control

###

Test system: P388 leukemia ip, CD2F1 mice, survival T/C
Experiment: NCI In Vivo Anticancer Drug Screen. Data for tumor model P388 Leukemia (intraperitoneal) in CD2F1 (CDF1) mice
Conditions: endpoint: median survival time; dose: 100.0 mg/kg/injection; schedule: Q04DX003 (ip); vehicle: saline with Tween-80; higher = longer survival
Inconclusive results and toxic doses are left out.
quantity-kind: T/C

Example molecules with recorded T/C:
{"columns": ["molecule", "T/C"],
 "data": [
  ["COc1ccc(OC)c(/C=C(/C)[N+](=O)[O-])c1", "123 % of control"],
  ["N#CCCN/N=C\\c1ccc2c(c1)OCO2", "102 % of control"],
  ["O=C(COC1CCCCC1)OC1CCCCC1", "100 % of control"]
]}

Query: Under P388 leukemia ip, CD2F1 mice, survival T/C: T/C value of O=S1(=O)CC2(N3CCOCC3)CCCCC21 (configuration not stated) ?
Result: 95 % of control

Query: Another molecule to look at: O=C1SC2(CCCCC2)SC1=O
Result: 104 % of control

Query: What do we get for O=C1OC(=O)C(c2ccccc2)(c2ccccc2)C1c1ccccc1 (configuration not stated) ?
Result: 112 % of control

Query: Again, but for Cc1ccc(NC(=O)COc2ccc(Cl)cc2Cl)c(C)c1
Result: 104 % of control
